These entries and their values trace back to ChEMBL document CHEMBL3994626.

- assay-info: Drug uptake in Balb/c mouse KLH model at 0.6 mg/kg, po after 24 hrs
- Format: ADME, organism-based
- condition-info: in vivo, read-out: Drug uptake

>  <smiles-string>
CC(=O)N1C[C@@H](C)N(c2cccc(-c3cc(-c4ccnn4C4CCOCC4)c4c(N)ncnn34)c2)[C@@H](C)C1

>  <concentration at 24 h>
< 5.6 nM

$$$$
